test system: MDA-MB-231 breast; assay: NCI-60 one-dose screen, 48 h (100 = growth as untreated, 0 = no growth, -100 = all killed); conditions: 10 µM unless noted
Compounds without any hit were thinned out: in the full panel of roughly 83,000, 20% have a hit. Calls of active or inactive are those of the source. The calls were made as follows: active = growth percent below 10; inactive = the rest.
# growth annotations

molecule=COC(=O)c1c(C)[nH]c(/C=C2\N=C(c3ccc[nH]3)C=C2OC)c1C observed_measurement="-40.2% (active)"
molecule=COc1ccc(/C=C/C(=C/c2c(O)[nH]c3cc(Br)ccc23)N=O)cc1 observed_measurement="101% (inactive)"
molecule=C=C(CC(=O)OC)C(C)=O observed_measurement="94.8% (inactive)"

Attention now turns to another entry.
// query Could you share which growth value was measured for CC1(C)CC[C@]2(C(N)=O)CC[C@]3(C)C(=CC[C@@H]4[C@@]5(C)C/C(=C/c6ccncc6)C(=O)C(C)(C)[C@@H]5CC[C@]43C)[C@@H]2C1 ?
// result -75% [100 µM] (active)

---

test system: A498 renal; experiment: NCI-60 one-dose screen, 48 h; conditions: 10 µM unless noted
The panel holds about 83,000 compounds, 20% with a hit somewhere; the sample as a whole holds those more often. Active and inactive are the calls of the source. Rule for the calls: active = growth percent below 10; inactive = the rest.
Log the outcome using a class from 1.0 = active, 0.0 = inactive

// below: answered molecules
molecule="C#CCOc1ccc(C2=NN(CC3CC3)C3N=C(Cl)c4ncn(CC5CC5)c4N23)cc1OCC#C (stereo not given)" label=0.0
molecule=COC(=O)C(=Cc1ccccc1[N+](=O)[O-])C(=O)OC label=0.0
molecule=COc1cc(OC)cc(C(=O)Nc2cc(-c3cccnc3)nc(NCCCN3CCOCC3)n2)c1 label=0.0
molecule="CC1Cc2c(Cl)ncnc2N(C)c2ccccc21 (stereo not given)" label=1.0
molecule=Cn1cc(-c2noc(C(=O)c3cn(C)c4ncc(Br)cc34)n2)c2ccccc21 label=0.0
molecule=O=C(NCCO)c1cccnc1 label=0.0

// query How was CC1(C)NCCC[C@]2(C)[C@H]3C=CC4=C5C[C@](C)(CO)CC[C@]5(C)CC[C@@]4(C)[C@]3(C)CC[C@@H]12 classified in this test?
// result 1.0

// query Now consider O=C1NC(=O)C(Cc2ccc(OCc3ccc(-c4cc(F)c(F)c(F)c4)cc3)cc2)S1 (stereo not given) .
// result 0.0

// query Now consider CCOc1ccc2sc(NS(=O)(=O)c3ccc(N)cc3)nc2c1 .
// result 0.0

// query Now consider C=CCCC1(C)NC(=O)NC1=O (stereo not given) .
// result 0.0

---

tested on: UACC-257 melanoma; assay: NCI-60 one-dose screen, 48 h (100 = growth as untreated, 0 = no growth, -100 = all killed); conditions: 10 µM unless noted
The panel holds about 83,000 compounds, 20% with a hit somewhere; the sample as a whole holds those more often. Active and inactive are the calls of the source. How the source made its calls: active means growth percent below 10; inactive means the rest.
# growth annotations

Recorded growth, per entry:
molecule=COc1ccc(OC)c([N+](=O)[O-])c1C(=O)CNC(C)=O experimental_system="UACC-257 melanoma" attribute_measured=growth observed_measurement="105% (inactive)"
molecule=C[C@H]1[C@H](C)CC[C@]2(COC(=O)CCC(=O)O)CC[C@]3(C)C(=CC[C@@H]4[C@@]5(C)CCCNC(C)(C)[C@@H]5CC[C@]43C)[C@H]12 experimental_system="UACC-257 melanoma" attribute_measured=growth observed_measurement="78.5% [100 µM] (inactive)"
molecule=CCOC(=O)Nc1ccc2c(c1)/C(=N\NC(=S)NC)c1ccccc1-2 experimental_system="UACC-257 melanoma" attribute_measured=growth observed_measurement="107% (inactive)"
molecule=C=C(C)[C@@H]1CC[C@]2(C(=O)NCCNCCNCCN)CC[C@]3(C)[C@H](CC[C@@H]4[C@@]5(C)CC[C@H](O)C(C)(C)[C@@H]5CC[C@]43C)[C@@H]12 experimental_system="UACC-257 melanoma" attribute_measured=growth observed_measurement="-39.6% [100 µM] (active)"
molecule="CCN(CC)c1ccc2cc(NC(=O)OCCNC(=O)CCNC(=O)[C@H](CC(C)C)NC(=O)C(C)(C)NC(=O)C(C)(C)NC(=O)[C@H](CC(C)C)NC(=O)CCNC(=O)C(C)(C)NC(=O)[C@H](CC(C)C)NC(=O)CCNC(=O)[C@@](C)(CC)NC(=O)[C@H](C)NC(=O)CCNC(=O)C(C)(C)NC(=O)[C@H](C)NC(=O)[C@@H]3CCCN3C(=O)[C@@](C)(CC)NC(=O)[C@H](Cc3ccccc3)NC(=O)C3CCCN3C(=O)C(C)(C)NC(=O)C3CCCN3C(=O)C(C)(C)NC(C)=O)c(=O)oc2c1 (stereo partly specified)" experimental_system="UACC-257 melanoma" attribute_measured=growth observed_measurement="-89.4% (active)"

Attention now turns to another entry.
// query Could you share which growth value was measured for CCOc1cc(NC(=O)c2ccccc2)c(OCC)cc1N ?
// result 118% (inactive)

This collection of values is drawn from PubChem BioAssay (NCI).
